# procedure_details: Components of the Cytosolic LPS Sensing Pathway: Gene Identification via Genome-wide siRNA Screen;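 further: robust z of the log signal after scaling to non-targeting control siRNA wells of the plate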
# measurement_parameters: RAW264.7 macrophages, IL-1a HTRF, actives lie on both sides, screened at 100 nM (by protocol), cells primed 5 h with Pam3CSK4 first
About 3,700 (7%) of roughly 53,000 sequences were called active. Many of the other results were omitted from the sample, so actives are more common in it than they were.
Param label: returns 1 (yes) when z-score < 0.3, returns 0 (no) otherwise, including exact equality.

Recorded results for 2 sequences are shown here.
Q: Problem: For the sequence AAGAGCCAUUAAUCGAGAATT against Cklf , is z-score under 0.3?
Result: 1 (yes)

Q: Problem: For the sequence GGGACCACCUUGAACACUATT against Slc52a3 , is z-score under 0.3?
Result: 0 (no)

More entries:
Q: Problem: For the sequence GGAAUCCUUGGACCUGAGGTT against Tnni3 , is z-score under 0.3?
Result: 1 (yes)

Q: Problem: For the sequence GCACAGAGUCUAGUGUUUATT against Ube2j2 , is z-score under 0.3?
Result: 0 (no)

Q: Problem: For the sequence GGAAGUCAACCGAGUCUUCTT against Sp140 , is z-score under 0.3?
Result: 1 (yes)

The reported numbers originate from PubChem BioAssay AID1508600.
